# assay.overview: Determination for cytotoxicity in THP-1 cells (Alamar Blue)
# Assay type: cell-based
# experimental.conditions: human, 24 hours incubation, read-out: LD50 (lethal dose for 50% in the THP-1 cells)
quantity: CC50 at 24 h

Please give CC50 at 24 h for each item listed below.
1. O=C(C#Cc1ccccc1)N1CCCCCC1=O
2. O=C(C#Cc1ccccc1)N1CCOC1=O
3. O=C(C#Cc1ccc(F)cc1)N1CCOC1=O

Completion:
> 200 µM
> 200 µM
> 100 µM

----------
# System: TNFα production
# assay.overview: Inhibitory activity of the TNFα production in PMA/polyinosic acid-stimulated THP-1 cells (ELIZA kit)
# Format: cell-based, human (THP-1 cells)
# experimental.conditions: Homo sapiens, PMA 2 μg/ml and polyinosic acid 200 μg/ml, 22 hours
Kindly supply the reported IC50 values for the records listed here.

CCN(C(=O)C#Cc1ccccc1)C(=O)c1cccs1	4800 nM
CC1CCC(=O)N1C(=O)C#Cc1ccccc1 (centres unmarked)	900 nM
CC(=O)N(C(=O)C#Cc1ccccc1)c1ccncc1	1700 nM
O=C(C#Cc1ccc(F)cc1)N1CCCC1=O	1300 nM
O=C(C#Cc1ccc(Cl)cc1)N1CCCC1=O	1600 nM
Cc1ccccc1N(C(=O)C#Cc1ccccc1)C(=O)CCc1ccccc1	1900 nM

Give me IC50 for each of these compounds, listed below.
1. CCCCC(=O)N(CCCC)C(=O)C#Cc1ccccc1
2. COC(=O)C1CCC(=O)N1C(=O)C#Cc1ccccc1 (racemic)
3. CCN(C(=O)C#Cc1ccccc1)C(=O)COC
4. CCN(C(=O)C#Cc1ccccc1)C(=O)c1ccccc1

Completion:
1: 14000 nM; 2: 600 nM; 3: > 30000 nM; 4: 5400 nM

// for each compound below, give its IC50
1. N#Cc1ccc(C#CC(=O)N2CCCC2=O)cc1
2. CC(=O)N(CCc1ccccc1)C(=O)C#Cc1ccccc1
3. O=C(C#Cc1ccc(F)cc1)N1CCOC1=O
4. COc1ccccc1CN(C(C)=O)C(=O)C#Cc1ccccc1

Completion:
1: 1700 nM; 2: 1700 nM; 3: 1700 nM; 4: 1800 nM

----------
# assay.overview: Determination for cytotoxicity in THP-1 cells (Alamar Blue)
# Type: cell-based
# experimental.conditions: human, 24 hours incubation, read-out: LD50 (lethal dose for 50% in the THP-1 cells)
quantity: CC50 at 24 h (µM)
One number for each entry, in µM.

O=C(C#Cc1ccccc1)N1CCCC1=O	70

Would you kindly look at the next entry?
The measured CC50 at 24 h associated with CC1CCC(=O)N1C(=O)C#Cc1ccccc1 (stereo not drawn) reads 110
